Each entry below carries its reported IC50.
# Test system: H929 cells
# procedure text: Cell viability assay (H929 10 FBS)
# Type: cell-based
# study conditions: Homo sapiens, NCI-H929, 24 hours, read-out: H929_10FBS IC50
# Description: Cell Viability Assay (H929 10 FBS) Dispense 10 μL aliquot of prepared H929 cells (1:1 ratio of cells:Trypan Blue (#1450013, Bio-Rad)) onto cell counting slide (#145-0011, Bio-Rad) and obtain cell density and cell viability using cell counter (TC20, Bio-Rad). Remove appropriate volume of resuspended cells from culture flask to accommodate 4000 cells/well @ 10 μL/well. […] Read plates with microplate reader (PheraStar, BMG Labtech) using 384 well luminescence mode.

CO[C@@H]1/C=C/CN(C)CC2(CCC2)C(=O)NS(=O)(=O)c2ccc3c(c2)N(C[C@@H]2CC[C@H]21)C[C@@]1(CCCc2cc(Cl)ccc21)CO3 | > 1000 nM
CO[C@@H]1CCN(CCO[C@H]2/C=C/COC(C)(C)C(=O)NS(=O)(=O)c3ccc4c(c3)N(C[C@@H]3CC[C@H]32)C[C@@]2(CCCc3cc(Cl)ccc32)CO4)C1 | < 500 nM
COC1CCN(C(=O)O[C@H]2/C=C/CN(C)C3(CCC3)C(=O)NS(=O)(=O)c3ccc4c(c3)N(C[C@@H]3CC[C@H]32)C[C@@]2(CCCc3cc(Cl)ccc32)CO4)CC1 | < 500 nM
CN(C)C(=O)O[C@@H]1/C=C/CNC(C)(C)C(=O)NS(=O)(=O)c2ccc3c(c2)N(C[C@@H]2CC[C@H]21)C[C@@]1(CCCc2cc(Cl)ccc21)CO3 | < 500 nM

# evaluate next
Task item: Name the recorded IC50 of the item `CN1CCN(C(=O)O[C@H]2/C=C/COC(C)(C)C(=O)NS(=O)(=O)c3ccc4c(c3)N(C[C@@H]3CC[C@H]32)C[C@@]2(CCCc3cc(Cl)ccc32)CO4)CC1` in your answer.
Reply: < 500 nM

* * *

Each entry below carries its reported IC50.
# Tested on: H929 cells
# procedure text: Cell viability assay (H929 10 FBS)
# Type: cell-based
# study conditions: Homo sapiens, NCI-H929, 24 hours, read-out: H929_10FBS IC50
# Procedure: Cell Viability Assay (H929 10 FBS) Dispense 10 μL aliquot of prepared H929 cells (1:1 ratio of cells:Trypan Blue (#1450013, Bio-Rad)) onto cell counting slide (#145-0011, Bio-Rad) and obtain cell density and cell viability using cell counter (TC20, Bio-Rad). Remove appropriate volume of resuspended cells from culture flask to accommodate 4000 cells/well @ 10 μL/well. […] Read plates with microplate reader (PheraStar, BMG Labtech) using 384 well luminescence mode.

Task item: Name the recorded IC50 of the item `CO[C@H]1/C=C/CN(C)C(C)(C)C(=O)NS(=O)(=O)c2ccc3c(c2)N(C[C@@H]2CC[C@H]21)C[C@@]1(CCCc2cc(Cl)ccc21)CO3` in your answer.
Reply: < 1000 nM

Task item: Name the recorded IC50 of the item `CC1(C)OC/C=C/[C@H](OCC(=O)N2C[C@@H](F)[C@@H](F)C2)[C@@H]2CC[C@H]2CN2C[C@@]3(CCCc4cc(Cl)ccc43)COc3ccc(cc32)S(=O)(=O)NC1=O` in your answer.
Reply: < 1000 nM

Task item: Name the recorded IC50 of the item `CCO[C@@H]1CCN(C(=O)O[C@H]2/C=C/COC(C)(C)C(=O)NS(=O)(=O)c3ccc4c(c3)N(C[C@@H]3CC[C@H]32)C[C@@]2(CCCc3cc(Cl)ccc32)CO4)C1` in your answer.
Reply: < 500 nM

* * *

# System: H929 cells
# procedure text: Cell viability assay (H929 10 FBS)
# Type: cell-based
# study conditions: Homo sapiens, NCI-H929, 24 hours, read-out: H929_10FBS IC50
readout kind: IC50

Take a look at these entries with their results.
CN1C/C=C/[C@H](OC(=O)N2CCOCC2)[C@@H]2CC[C@H]2CN2C[C@@]3(CCCc4cc(Cl)ccc43)COc3ccc(cc32)S(=O)(=O)NC(=O)C1(C)C | < 0.5 µM
CO[C@@H]1/C=C/CN(C)[C@@H](C(C)C)C(=O)NS(=O)(=O)c2ccc3c(c2)N(C[C@@H]2CC[C@H]21)C[C@@]1(CCCc2cc(Cl)ccc21)CO3 | > 1 µM

Task item: Name the recorded IC50 of the item `CC1(C)OC/C=C/[C@@H](O)[C@@H]2CC[C@H]2CN2C[C@@]3(CCCc4cc(Cl)ccc43)COc3ccc(cc32)S(=O)(=O)NC1=O` in your answer.
Reply: < 1 µM

Task item: Name the recorded IC50 of the item `CN1C(=O)OC[C@@H]2CC[C@H]2CN2C[C@@]3(CCCc4cc(Cl)ccc43)COc3ccc(cc32)S(=O)(=O)NC(=O)N2CC[C@H]1C2` in your answer.
Reply: > 1 µM

Task item: Name the recorded IC50 of the item `CC1(C)OC/C=C/[C@H](OC(=O)NC2CC2)[C@@H]2CC[C@H]2CN2C[C@@]3(CCCc4cc(Cl)ccc43)COc3ccc(cc32)S(=O)(=O)NC1=O` in your answer.
Reply: < 0.5 µM

Task item: Name the recorded IC50 of the item `CC1(C)OC/C=C/[C@H](OC(=O)N2CCC(O)CC2)[C@@H]2CC[C@H]2CN2C[C@@]3(CCCc4cc(Cl)ccc43)COc3ccc(cc32)S(=O)(=O)NC1=O` in your answer.
Reply: < 0.5 µM

Task item: Name the recorded IC50 of the item `CCN1C/C=C/[C@H](OC(=O)NC2CCOCC2)[C@@H]2CC[C@H]2CN2C[C@@]3(CCCc4cc(Cl)ccc43)COc3ccc(cc32)S(=O)(=O)NC(=O)C1(C)C` in your answer.
Reply: < 0.5 µM

Task item: Name the recorded IC50 of the item `CN1CCN(CCNC(=O)O[C@H]2/C=C/COC(C)(C)C(=O)NS(=O)(=O)c3ccc4c(c3)N(C[C@@H]3CC[C@H]32)C[C@@]2(CCCc3cc(Cl)ccc32)CO4)CC1` in your answer.
Reply: < 0.5 µM

Task item: Name the recorded IC50 of the item `CO[C@@H]1/C=C/C[C@H](C)[C@@H](C)C(=O)NS(=O)(=O)c2ccc3c(c2)N(C[C@@H]2CC[C@H]21)C[C@@]1(CCCc2cc(Cl)ccc21)CO3` in your answer.
Reply: > 1 µM

Task item: Name the recorded IC50 of the item `COC(=O)N[C@@H]1/C=C/COC(C)(C)C(=O)NS(=O)(=O)c2ccc3c(c2)N(C[C@@H]2CC[C@H]21)C[C@@]1(CCCc2cc(Cl)ccc21)CO3` in your answer.
Reply: > 1 µM

Task item: Name the recorded IC50 of the item `CC1(C)OC/C=C/[C@H](OC(=O)NC2CCC2)[C@@H]2CC[C@H]2CN2C[C@@]3(CCCc4cc(Cl)ccc43)COc3ccc(cc32)S(=O)(=O)NC1=O` in your answer.
Reply: < 0.5 µM

Task item: Name the recorded IC50 of the item `CC1(C)OC/C=C/[C@H](OC(=O)N2CCN(c3ccccn3)CC2)[C@@H]2CC[C@H]2CN2C[C@@]3(CCCc4cc(Cl)ccc43)COc3ccc(cc32)S(=O)(=O)NC1=O` in your answer.
Reply: < 0.5 µM

Task item: Name the recorded IC50 of the item `CN(C)C(=O)O[C@H]1/C=C/COC(C)(C)C(=O)NS(=O)(=O)c2ccc3c(c2)N(C[C@@H]2CC[C@H]21)C[C@@]1(CCCc2cc(Cl)ccc21)CO3` in your answer.
Reply: < 0.5 µM

Task item: Name the recorded IC50 of the item `CC1(C)OC/C=C/[C@H](OCC(=O)N2CCCC2)[C@@H]2CC[C@H]2CN2C[C@@]3(CCCc4cc(Cl)ccc43)COc3ccc(cc32)S(=O)(=O)NC1=O` in your answer.
Reply: < 0.5 µM

Task item: Name the recorded IC50 of the item `CN(C)CCN(C)C(=O)O[C@H]1/C=C/CN(C)C(C)(C)C(=O)NS(=O)(=O)c2ccc3c(c2)N(C[C@@H]2CC[C@H]21)C[C@@]1(CCCc2cc(Cl)ccc21)CO3` in your answer.
Reply: < 0.5 µM

Task item: Name the recorded IC50 of the item `CN(C)C(=O)O[C@H]1/C=C/COC(C)(C)C(=O)NS(=O)(=O)c2ccc3c(c2)N(C[C@@H]2CC[C@H]21)C[C@@]1(CCOc2cc(Cl)ccc21)CO3` in your answer.
Reply: < 0.5 µM

Task item: Name the recorded IC50 of the item `CN(C(=O)O[C@H]1/C=C/COC(C)(C)C(=O)NS(=O)(=O)c2ccc3c(c2)N(C[C@@H]2CC[C@H]21)C[C@@]1(CCOc2cc(Cl)ccc21)CO3)[C@@H]1CCOC1` in your answer.
Reply: < 0.5 µM

Task item: Name the recorded IC50 of the item `CO[C@@H]1/C=C/CO[C@H](C)C(=O)NS(=O)(=O)c2ccc3c(c2)N(C[C@@H]2CC[C@H]21)C[C@@]1(CCCc2cc(Cl)ccc21)CO3` in your answer.
Reply: > 1 µM

Task item: Name the recorded IC50 of the item `CC1(C)OC/C=C/[C@H](OC(=O)NCCN2CCCCC2)[C@@H]2CC[C@H]2CN2C[C@@]3(CCCc4cc(Cl)ccc43)COc3ccc(cc32)S(=O)(=O)NC1=O` in your answer.
Reply: < 0.5 µM

Task item: Name the recorded IC50 of the item `CO[C@H]1/C=C/C[C@H](C)CC(=O)NS(=O)(=O)c2ccc3c(c2)N(C[C@@H]2CC[C@H]21)C[C@@]1(CCCc2cc(Cl)ccc21)CO3` in your answer.
Reply: > 1 µM

Task item: Name the recorded IC50 of the item `CN([C@H]1/C=C/COC(C)(C)C(=O)NS(=O)(=O)c2ccc3c(c2)N(C[C@@H]2CC[C@H]21)C[C@@]1(CCCc2cc(Cl)ccc21)CO3)S(C)(=O)=O` in your answer.
Reply: > 1 µM
